Each entry below carries its recorded switch fluorescence ratio.
# Test system: ATP;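 also: ATP exposure 15 min at 22 °C before imaging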
# testProtocol: switch fluorescence ratio, 500 uM ATP over buffer (Cy3 cluster intensity, sum of 5 cycles each) (fold (ratio)); higher = stronger signal-on switching upon ATP binding; sequences stand for … in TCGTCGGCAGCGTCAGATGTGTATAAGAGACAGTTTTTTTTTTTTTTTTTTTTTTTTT…TC
# conditionLabel: aptamer strand: ATP DNA aptamer (quencher-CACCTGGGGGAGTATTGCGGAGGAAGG + anchor), 100 nM annealed; ATP concentration: 500 uM
Just the number.

q: Please provide the recorded switch fluorescence ratio for "TCGGTATATA" , tested on ATP.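 Also: ATP exposure 15 min at 22 °C before imaging.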
a: 1.03

q: Please provide the recorded switch fluorescence ratio for "TGGTTGCGTG" , tested on ATP.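 Also: ATP exposure 15 min at 22 °C before imaging.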
a: 1

q: Please provide the recorded switch fluorescence ratio for "ATTTTTACAG" , tested on ATP.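 Also: ATP exposure 15 min at 22 °C before imaging.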
a: 1.03

***
q: Please provide the recorded switch fluorescence ratio for "TTACGTGCTG" , tested on ATP.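 Also: ATP exposure 15 min at 22 °C before imaging.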
a: 0.981

q: Please provide the recorded switch fluorescence ratio for "TATGTCTCTC" , tested on ATP.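 Also: ATP exposure 15 min at 22 °C before imaging.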
a: 0.975

q: Please provide the recorded switch fluorescence ratio for "AGAGACGAAT" , tested on ATP.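 Also: ATP exposure 15 min at 22 °C before imaging.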
a: 1.01
